- Tested on: UO-31 renal
- Test details: NCI-60 one-dose screen, 48 h
- Condition set: 10 µM unless noted
About 83,000 compounds went through this panel and 20% of them were active in at least one assay; those are over-represented in the sample as a whole. Active and inactive are the calls of the source. How the source made its calls: active means growth percent below 10; inactive means the rest.
Lab note: assign the record to one of yes (active), no (inactive)

Which outcome did this test record for the molecule COc1cc2c(cc1OC)CN(C)C(C)C2 (centres undefined) ?
no

What do you have for COc1cc(C2=NN(c3ccccc3)C(c3sc(N(CCCl)CCCl)nc3Cl)C2)cc(OC)c1OC (centres undefined) ?
no

Same question for CO[C@@H](c1ccccc1Cl)[C@H](C)OC(N)=O please.
no

Another: Nc1c(Br)cc2c3c(cccc13)-c1ccccc1-2
no

Same read-out for [Cl][Hg][n]1cnc2c(Cl)c(Cl)c(Cl)cc21 ?
no

Queued: Oc1ccccc1OB(Oc1ccccc1O)N(CCCl)CCCl
no

Cool, now CC(C)(O)/C=C/C(=O)[C@](C)(O)[C@H]1[C@H](O)C[C@@]2(C)[C@@H]3CC=C4[C@@H](C=C(O)C(=O)C4(C)C)[C@]3(C)C(=O)C[C@]12C
yes

Then this molecule: CCCCCCCC(=O)OCC/C=C/C1OC1C1OC(=O)/C=C\C=C\c2nc(oc2C)/C=C(/C)CCC2OC2C1OC(=O)NC(C)=O (centres undefined)
yes

Ok, now CCCCNCCc1ccccn1
no

* * *

- System: HL-60(TB) leukemia
- Test details: NCI-60 one-dose screen, 48 h
- Condition set: 10 µM unless noted
Compounds without any hit were thinned out: in the full panel of roughly 83,000, 20% have a hit. Activity calls are given as the source filed them. How the source made its calls: active means growth percent below 10; inactive means the rest.
Please answer using one outcome listed in active, inactive

Could you please tell me the result logged for O=C(NO)c1ccc(CNc2cccc3nc(C4CC4)n(-c4ccccc4)c(=O)c23)cc1 in this assay?
active

What do we get for CCN(C(=O)c1cc2ccccc2[nH]1)[C@H]1CCC[C@@H](NCc2ccc(OC)cc2)C1 ?
inactive

Now consider COc1cc(C(=O)/C=C/c2c(C(F)(F)F)nc3ccccn23)cc(OC)c1OC and answer again.
active

Please give the result for O=C(Nc1cccc(-n2cc(-c3ccncc3)c(-c3ccc(Cl)c(O)c3)n2)c1)c1ccc(N2CCOCC2)c(C(F)(F)F)c1 too.
inactive

Query COC(=O)c1ccc2oc(NC(=O)c3ccc(Nc4ccc([N+](=O)[O-])cc4C)c([N+](=O)[O-])c3)nc2c1 next
inactive

Try CCN(CCN(C)C)C(=O)CNCc1cc(C(N)=O)ccn1 next.
inactive

Field entry: N#CC(C#N)C(C#N)C#N
inactive

Moving on to the next molecule: C#CCSc1nnnn1-c1ccc(Br)c(C)c1
inactive

Input O=C(Nc1ccc(F)cc1F)c1cc(Cl)ccc1O
active

Then Cc1ccc2nc(-c3c(CCCO)noc3N)[nH]c(=O)c2c1 ?
inactive

Also check N#Cc1c2c(c(N)[nH]c1=O)C(=O)NC2(O)c1ccccc1 (stereo not given)
inactive

Note, next up: Cc1ccc2c(n1)C(=O)C(Cl)=C(Nc1ccccc1C(C)C)C2=O
active

Okay, and CCN=C1C=CC(=C(c2ccc(N(C)C)cc2)c2ccc(N(C)C)cc2)c2ccccc21 ?
active

Ok, now CC(C)(C)c1ccc(CCO)cc1
inactive

// repeat for CCCC1OC(c2ccc(C(C)C)cc2)OCC1CC (stereo not given) and report
inactive

* * *

- Tested on: HCT-116 colon
- Test details: NCI-60 one-dose screen, 48 h (100 = growth as untreated, 0 = no growth, -100 = all killed)
- Condition set: 10 µM unless noted
This is part of a sample that, as a whole, favours compounds with a hit. Of some 83,000 tested, about 20% had one in any assay.
Recorded metric: growth (%)
Kindly answer with a numeric value in %, unit omitted.

Please report the recorded growth for CCC(C)/C=C(C)/C=C/C(=O)c1c(O)c(-c2ccc(O)cc2)c[nH]c1=O (stereo unspecified) .
39

Param item: Cc1cccc(N(C)c2cccc3c2C(=O)[Se]C3)c1C
3.47

What do you have for CC1([N+](=O)[O-])COP(=O)(Nc2ccc(F)cc2)OC1 (stereo unspecified) ?
99.4

Then O=C1C=CC(=O)C2C1C1(Cl)C(Cl)=C(Cl)C2(Cl)C1(Cl)Cl (stereo unspecified) ?
36.3

Would you mind doing S=P(Nc1ccccc1)(Nc1ccccc1)c1ccccc1 as well?
81.1

Then this molecule: CCC[CH2][Sn]([CH2]CCC)([CH2]CCC)[O]C(=O)c1ccc(Cl)cc1Cl
-87.6

Would you mind doing [N-]=[N+]=NC(C(=O)O)c1ccccc1 (stereo unspecified) as well?
101

Can you check CC1(C)N=C(N)N=C(N)N1c1ccc(CCC(=O)Nc2cccc(S(=O)(=O)F)c2)cc1 next?
41.3

Next: O=C1NC(=O)C(CN2C(=O)C3(c4ccccc42)[C@H](Cl)C(=O)N3c2ccccc2)C(=O)N1 (stereo partly specified)
79.9

Continue with CCCCCCCC(=O)OCC/C=C/C1OC1C1OC(=O)/C=C\C=C\c2nc(oc2C)/C=C(/C)CCC2OC2C1OC(=O)NC(C)=O (stereo unspecified)
-24.4

And Nc1c(Br)cc2c3c(cccc13)-c1ccccc1-2 ?
81.4

Same again, this time with COc1ccc(C(=O)c2ccc([As]=O)cc2)cc1 (stereo unspecified)
-83.3

Here is the next molecule: CC(/C=N/N=C(N)N)=N/N=C(N)N
83.9

Now consider CCCCN(CCCC)CC(O)c1ccccc1 (stereo unspecified) and answer again.
114

How about this molecule: C[CH2][Sn]([CH2]C)([CH2]C)[NH]S(=O)(=O)c1ccc(C)cc1
106

Thanks! And CNC(C)Cc1ccccc1 (stereo unspecified) (tested in a mixture with another compound) ?
100

Nc1ncnc2c1c(C(=O)NO)cn2C1OC(CO)C(O)C1O (stereo unspecified) ?
7.69

Would you kindly repeat that for O=C(CF)N(O)c1ccc(/C=C/c2ccccc2)cc1 ?
11.5

Try the molecule CCC(CO)NC1CCCCC1 (stereo unspecified)
26.8

Here is the next molecule: O=[N+]([O-])c1cccc([As]=[As]c2cccc([N+](=O)[O-])c2)c1 (stereo unspecified)
-89.3

Same question, CC(C)OC(=S)[S-].[Au+].c1ccc([PH+](c2ccccc2)c2ccccc2)cc1 this time
13.9

Again, but for C[C@]12CC[C@@H]3C4=C(CC[C@H]3[C@@H]1CC[C@@H]2O)CC(=O)CC4
102

Moving on to the next molecule: n1nc(-c2nonc2-c2nn[nH]n2)n[nH]1
106

Here is the next molecule: NS(=O)(=O)c1nc[nH]c1[N+](=O)[O-]
104

// repeat for C=CCN1C(=O)C(CC)(CCC(C)C)C(=O)NC1=S (stereo unspecified) and report
105

Try the molecule CCOC(=O)C1(c2ccccc2)CCN(CC(=O)c2ccc(NC(C)=O)cc2)CC1
97.7

Try S=P(N1CCCCCC1)(N1CC1)N1CC1 next.
99.8

CC1(C)CC2(CC(C)(C)c3cc(O)c(O)cc32)c2cc(O)c(O)cc21 , same question.
85.4

Same thing, different molecule: O=C(c1cccs1)C1NO[N+]([O-])=C1c1cccs1 (stereo unspecified)
25.6

Do the same for CC1(C)N=C(N)N=C(N)N1c1cccc(C(=O)Nc2cccc(S(=O)(=O)F)c2)c1 please
101

Follow-up entry: Cc1cc(C)nc(C)c1.[Cl][Hg][Cl]
108

Similarly, CC(C)(C)NCC(O)c1ccccc1Cl (stereo unspecified) ?
7.48

Lookup N#CC1c2ccccc2C=CN1C(=O)c1ccc(N(CCCl)CCCl)cc1 (stereo unspecified)
104

Queued: CC(=O)Nc1ccc(Cc2ccc(NC(C)=O)cc2)cc1
94.9

Record: OB([O][Hg][c]1ccccc1)[O][Hg][c]1ccccc1
-68.4

Follow-up entry: O=[N+]([O-])c1ccc(/C=C/C=C/c2ccc(S(=O)(=O)F)cc2)c(Cl)c1
106

Continue with C[C@@H]1CC[C@@H]2[C@@H]1[C@H](OC(=O)/C=C/C1CCCCC1)[C@]1(C3CCCCC3)C[C@@H](OC(=O)CO)[C@@]2(C)O1
39.6

Next record, please: C[C@]12CC[C@H](OC3OC(O)C(O)C(O)C3O)C=C1CCC1C2CC[C@]2(C)[C@@H](c3ccc(=O)oc3)CC[C@]12O (stereo partly specified)
-95.3

// next record NCCc1cc(O)c(O)cc1O
95.3

Also CN=C(NN)NN ?
109

// repeat for CN(C)P1(N(C)C)=NP(N(C)C)(N(C)C)=NP(N(C)C)(N(C)C)=N1 and report
102

* * *

For each of the compounds below, state its growth.
- System: K-562 leukemia
- Test details: NCI-60 one-dose screen, 48 h (100 = growth as untreated, 0 = no growth, -100 = all killed)
- Condition set: 10 µM unless noted
About 83,000 compounds went through this panel and 20% of them were active in at least one assay; those are over-represented in the sample as a whole.
Quick note: give the figure in %, leave out the unit.

Provide value of growth for this record tested with K-562 leukemia: O=C(CCc1ccco1)NC1CCN(CC2(c3ccc(Cl)cc3)CCC2)CC1
3.19

Queued: COc1ccc(OC)c(/C=C(/C)[N+](=O)[O-])c1
4.29

Subsequent entry: O=[N+]([O-])c1cc([N+](=O)[O-])c(Cl)c(Cl)c1Cl
13
